Target: T1, human α-CGRP 1-37 (WT) (human, C-terminal amide; N-terminal biotin when captured on the SA chip; 125I-labelled in the radioligand assay)
T1 construct: also called α-human
T1 peptide: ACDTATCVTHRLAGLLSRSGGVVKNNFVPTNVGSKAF
Assay: Biacore, 37°C, Fab over CGRP on SA chip
Property label: Kd (nM)
Quick reminder: number only, in nM, skip the unit.

G1 variant M76 Fab (Fab, V domains shown, Fab; constant domains as m1) VH: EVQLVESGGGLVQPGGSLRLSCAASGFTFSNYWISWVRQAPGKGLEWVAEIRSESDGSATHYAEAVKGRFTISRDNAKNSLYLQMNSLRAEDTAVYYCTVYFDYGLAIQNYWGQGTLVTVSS VL: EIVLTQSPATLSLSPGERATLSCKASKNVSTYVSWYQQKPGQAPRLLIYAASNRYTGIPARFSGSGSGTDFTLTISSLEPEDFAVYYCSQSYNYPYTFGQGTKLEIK; 2.28

Then this binder:
G1 variant M50 Fab (Fab, V domains shown, Fab; constant domains as m1) VH: EVQLVESGGGLVQPGGSLRLSCAASGFTFSNYWISWVRQAPGKGLEWVAEIRSKSDRSATHYAEAVKGRFTISRDNAKNSLYLQMNSLRAEDTAVYYCTVYFDYGLAIQNYWGQGTLVTVSS VL: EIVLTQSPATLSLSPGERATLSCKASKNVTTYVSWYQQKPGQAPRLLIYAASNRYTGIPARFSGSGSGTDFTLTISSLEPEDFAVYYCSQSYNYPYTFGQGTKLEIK has a reported Kd of 2.54
